Catalogue of molecules with associated pKi
experimentalSystem: LHRH rat pituitary receptor (Rattus norvegicus, UniProt P30969)
Sequence (P30969 1-327): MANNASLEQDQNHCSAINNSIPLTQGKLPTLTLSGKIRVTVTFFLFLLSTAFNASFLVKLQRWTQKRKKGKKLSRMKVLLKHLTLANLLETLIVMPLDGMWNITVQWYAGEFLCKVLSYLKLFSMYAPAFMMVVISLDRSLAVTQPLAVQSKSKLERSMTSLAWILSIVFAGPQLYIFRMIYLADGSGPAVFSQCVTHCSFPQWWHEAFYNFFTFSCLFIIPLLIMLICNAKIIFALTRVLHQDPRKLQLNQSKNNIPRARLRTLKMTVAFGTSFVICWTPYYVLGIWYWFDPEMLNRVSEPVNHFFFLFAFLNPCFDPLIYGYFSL
pKi: −log10 of the molar value.
readoutName: pKi

molecule	recordedNumber
CC[C@H]1OC(=O)[C@H](C)[C@@H](OC(=O)N2C(=O)OC[C@@H]2C)[C@H](C)[C@@H](O[C@@H]2O[C@H](C)C[C@H](N(C)C3CCCC3)[C@H]2O)[C@](C)(OC)C[C@@H](C)C(=O)[C@H](C)[C@H]2N(CCc3ccc(F)c(Cl)c3)C(=O)O[C@]12C [Example 35]	9.07
CC[C@H]1OC(=O)[C@H](C)[C@@H](OC(=O)N2C(=O)OC[C@@H]2C)[C@H](C)[C@@H](O[C@@H]2O[C@H](C)C[C@H](N(CC3CC3)C(C)C)[C@H]2O)[C@](C)(OC)C[C@@H](C)C(=O)[C@H](C)[C@H]2N(CCc3ccc(F)c(Cl)c3)C(=O)O[C@]12C [Example 56]	9.92
CC[C@H]1OC(=O)[C@H](C)[C@@H](OC(=O)N2C(=O)OC[C@@H]2C)[C@H](C)[C@@H](O[C@@H]2O[C@H](C)C[C@H](N(C)CC3(C)CC3)[C@H]2O)[C@](C)(OC)C[C@@H](C)C(=O)[C@H](C)[C@H]2N(CCc3ccc(Cl)c(Cl)c3)C(=O)O[C@]12C [Example 54]	8.83
CC[C@H]1OC(=O)[C@H](C)[C@@H](OC(=O)N2C(=O)OC[C@@H]2C)[C@H](C)[C@@H](O[C@@H]2O[C@H](C)C[C@H](N(C)C3CCCC3)[C@H]2O)[C@](C)(OC)C[C@@H](C)C(=O)[C@H](C)[C@H]2N(CCc3ccc(F)cc3)C(=O)O[C@]12C [Example 30]	9.89
CCCN(C(C)C)[C@H]1C[C@@H](C)O[C@@H](O[C@@H]2[C@@H](C)[C@H](OC(=O)N3C(=O)OC[C@@H]3C)[C@@H](C)C(=O)O[C@H](CC)[C@@]3(C)OC(=O)N(CCc4ccc(Cl)c(Cl)c4)[C@@H]3[C@@H](C)C(=O)[C@H](C)C[C@@]2(C)OC)[C@@H]1O [Example 21]	9.61
CC[C@H]1OC(=O)[C@H](C)[C@@H](OC(=O)N2C(=O)OC[C@@H]2C)[C@H](C)[C@@H](O[C@@H]2O[C@H](C)C[C@H](N(C)C3CCC3)[C@H]2O)[C@](C)(OC)C[C@@H](C)C(=O)[C@H](C)[C@H]2N(CCc3ccc(F)c(Cl)c3)C(=O)O[C@]12C [Example 34]	10.08

###

experimentalSystem: LHRH rat pituitary receptor (Rattus norvegicus, UniProt P30969)
Sequence (P30969 1-327): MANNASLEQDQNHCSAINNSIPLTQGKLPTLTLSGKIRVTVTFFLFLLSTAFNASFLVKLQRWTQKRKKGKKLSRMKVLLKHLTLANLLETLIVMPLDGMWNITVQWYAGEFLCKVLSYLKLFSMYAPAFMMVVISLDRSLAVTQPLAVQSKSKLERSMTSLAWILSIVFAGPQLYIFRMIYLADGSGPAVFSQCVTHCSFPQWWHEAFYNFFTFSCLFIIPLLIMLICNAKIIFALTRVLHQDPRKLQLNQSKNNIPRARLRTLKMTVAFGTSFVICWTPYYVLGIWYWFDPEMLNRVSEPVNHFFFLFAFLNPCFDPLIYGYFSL
Catalogue of molecules with associated Ki

substanceSmiles	Ki
CC[C@H]1OC(=O)[C@H](C)[C@@H](OC(=O)N2COC[C@H]2C)[C@H](C)[C@@H](O[C@@H]2O[C@H](C)C[C@H](N(C)C(C)C)[C@H]2O)[C@](C)(OC)C[C@@H](C)C(=O)[C@H](C)[C@H]2N(CCc3ccc(Cl)cc3)C(=O)O[C@]12C	11.7 nM
CC[C@H]1OC(=O)[C@H](C)[C@@H](OC(=O)N2C(=O)OC[C@@H]2C)[C@H](C)[C@@H](O[C@@H]2O[C@H](C)C[C@H](N(C)C3CCCCC3)[C@H]2O)[C@](C)(OC)C[C@@H](C)C(=O)[C@H](C)[C@H]2N(CCc3ccc(Cl)c(Cl)c3)C(=O)O[C@]12C	3.89 nM
CC[C@H]1COC(=O)N1C(=O)O[C@H]1[C@H](C)[C@@H](O[C@@H]2O[C@H](C)C[C@H](N(C)CC3CC3)[C@H]2O)[C@](C)(OC)C[C@@H](C)C(=O)[C@H](C)[C@H]2N(CCc3ccc(Cl)c(Cl)c3)C(=O)O[C@]2(C)[C@@H](CC)OC(=O)[C@@H]1C	6.76 nM
CC[C@H]1OC(=O)[C@H](C)[C@@H](OC(=O)N2C(=O)OC[C@@H]2C)[C@H](C)[C@@H](O[C@@H]2O[C@H](C)C[C@H](N(C)CC3CC3)[C@H]2O)[C@](C)(OC)C[C@@H](C)C(=O)[C@H](C)[C@H]2N(CCc3ccc(Cl)cc3)C(=O)O[C@]12C	1.45 nM
